Reported pIC50 is given for each of the following compounds.
# testedSystem: c-Met (cytoplasmic domain) (Homo sapiens)
# Construct: 10 ng/mL c-Met (cytoplasmic domain, Invitrogen Corporation #PV3143); purchased Invitrogen Corporation PV3143
# Sequence (P08581 956-1390 limits assumed): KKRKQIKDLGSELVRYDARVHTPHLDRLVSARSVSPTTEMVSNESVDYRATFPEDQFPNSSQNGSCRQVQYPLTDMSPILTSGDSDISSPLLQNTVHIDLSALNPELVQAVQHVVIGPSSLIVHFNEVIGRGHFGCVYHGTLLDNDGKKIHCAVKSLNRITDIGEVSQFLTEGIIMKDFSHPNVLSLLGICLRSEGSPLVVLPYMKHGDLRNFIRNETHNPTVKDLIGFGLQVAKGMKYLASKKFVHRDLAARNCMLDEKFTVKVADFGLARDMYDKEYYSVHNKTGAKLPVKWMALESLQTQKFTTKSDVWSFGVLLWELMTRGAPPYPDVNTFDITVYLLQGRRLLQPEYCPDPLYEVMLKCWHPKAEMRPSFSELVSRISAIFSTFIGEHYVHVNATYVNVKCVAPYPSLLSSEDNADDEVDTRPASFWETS
# assay: c-Met Kinase Assay (same methods as for ALK, with modifications)
# Assay type: biochemical
# condition: c-Met kinase inhibition, 1 μM ATP (Km level); read-out: cMet Activity
pIC50: −log10 of the molar value.

Example compounds with recorded pIC50:
                                   compound  parametermeasured      observed
0  CNC(=O)c1ccccc1Nc1nc(Nc2cccc3c2C(=O)NC(C)CN3C(=O)C(F)(F)F)ncc1Cl (stereo not drawn) [Example 229]              pIC50        < 5.00
1  COCCN1C2CCC1c1cc(Nc3ncc(Cl)c(Nc4c(F)cccc4C(=O)OC(C)C)n3)ccc1C2 (stereo not drawn) [Example 457]              pIC50  6.00 to 7.00
2  CNS(=O)(=O)c1ccccc1Nc1nc(Nc2ccc3c(c2)CCCC(=O)N3CC(=O)OC)ncc1Cl [Example 8]              pIC50        > 7.00
3  CCOC(=O)N1C2CCC1c1cc(Nc3ncc(Cl)c(Nc4ccccc4C(=O)NC)n3)c(Cl)cc1C2 (stereo not drawn) [Example 74]              pIC50        < 5.00
4  CC1(C)CCC(=O)Nc2ccc(Nc3ncc(Cl)c(NC4C5C=CC(C5)C4C(N)=O)n3)cc21 (stereo not drawn) [Example 394]              pIC50  6.00 to 7.00

Record CCN1C(=O)CCC(C)(C)c2cc(Nc3ncc(Cl)c(N[C@@H]4CCCC[C@H]4NS(C)(=O)=O)n3)ccc21 [Example 388] . Reported pIC50: 5.00 to 6.00

Given item CCN1C(=O)CCCc2ccc(Nc3ncc(Br)c(Nc4c(F)cccc4C(=O)NC)n3)cc21 [Example 359] , the value recorded as its pIC50 is > 7.00

The recorded pIC50 for entry CCN1C(=O)CCCc2cc(Nc3ncc(Cl)c(N[C@@H]4CCCC[C@H]4NS(C)(=O)=O)n3)c(OC)cc21 [Example 130] equals < 5.00

Record CC(=O)OCCN1CCN(C)c2cc(Nc3ncc(Cl)c(Nc4ccccc4NS(C)(=O)=O)n3)ccc2C1 [Example 473] . Reported pIC50: 6.00 to 7.00

pIC50 reading for Cn1ccnc1-c1ccccc1Nc1nc(Nc2ccc3c(c2)CCC(=O)CC3)ncc1Cl [Example 217] : 6.00 to 7.00

###

# testedSystem: baculovirus-expressed ALK (Homo sapiens)
# Construct: host or cells: baculovirus expression system
# assay: ALK Kinase Assay (ELISA-type, time-resolved fluorescence)
# Format: biochemical
# condition: 1 μM ATP (Km level), 30 ng/ml ALK, 37° C., 15 minutes; read-out: ALK Activity (ALK kinase inhibition, IC50 class)
# Protocol: Briefly, each 96-well plate was coated with 100 μL/well of 10 μg/mL substrate (phospholipase C-γ) in Tris-buffered saline (TBS). […] The reaction was initiated by adding enzyme (30 ng/ml ALK) and was allowed to proceed at 37° C. for 15 minutes. Detection of the phosphorylated product was performed by adding 100 μl/well of Eu-N1 labeled PT66 antibody (Perkin Elmer # AD0041). Data analysis was performed using ActivityBase (IDBS, Guilford, UK). […]
pIC50: −log10 of the molar value.
parameterMeasured: pIC50

Recorded pIC50, per entry:
>>> print(df.to_string())
                                   compound                              testedsystem  parametermeasured      observed
0  CNC(=O)c1cccc(O)c1Nc1nc(Nc2ccc3c(c2)CCN(CCOC)CC3)ncc1Cl  baculovirus-expressed ALK (Homo sapiens)              pIC50  6.00 to 7.00
1  CNC(=O)c1cccc(F)c1Nc1nc(Nc2ccc3c(c2)CCN(CC(=O)N(C)C)CC3)ncc1Cl  baculovirus-expressed ALK (Homo sapiens)              pIC50        > 7.00
2  COc1cc2c(cc1Nc1ncc(Cl)c(Nc3cc(C(N)=O)ccc3OC)n1)CCN(CC(=O)N(C)C)CC2  baculovirus-expressed ALK (Homo sapiens)              pIC50  6.00 to 7.00

Given item COc1cc2c(cc1Nc1ncc(Cl)c(Nc3ccccc3S(=O)(=O)N(C)C)n1)CCC(N1CCOCC1)CC2 (stereo not shown) , the value recorded as its pIC50 is > 7.00

###

# testedSystem: c-Met (cytoplasmic domain) (Homo sapiens)
# Construct: 10 ng/mL c-Met (cytoplasmic domain, Invitrogen Corporation #PV3143); purchased Invitrogen Corporation PV3143
# assay: c-Met Kinase Assay (same methods as for ALK, with modifications)
# Format: biochemical
# condition: 1 μM ATP (Km level), 10 ng/mL c-Met; read-out: cMet Activity (c-Met kinase inhibition, IC50 class)
# Experimental: Briefly, each 96-well plate was coated with 100 μL/well of 10 μg/mL substrate (phospholipase C-γ) in Tris-buffered saline (TBS). […] The reaction was initiated by adding enzyme (30 ng/ml ALK) and was allowed to proceed at 37° C. for 15 minutes. Detection of the phosphorylated product was performed by adding 100 μl/well of Eu-N1 labeled PT66 antibody (Perkin Elmer # AD0041). Data analysis was performed using ActivityBase (IDBS, Guilford, UK). […]
pIC50: −log10 of the molar value.
parameterMeasured: pIC50

Please review the entries below; each comes with its answer.
In [3]: df
Out[3]:
                                   molecule  parametermeasured      observed
0  CNC(=O)c1cc(F)cc(F)c1Nc1nc(Nc2ccc3c(c2)NC(=O)CCC3)ncc1Cl              pIC50        > 7.00
1  CCN1CCCOc2ccc(Nc3ncc(Cl)c(Nc4c(F)cc(-c5cnn(C)c5)cc4C(=O)NC)n3)cc21              pIC50        > 7.00
2  COCCN1CCc2ccc(Nc3ncc(Cl)c(Nc4ccccc4C(=O)OC)n3)cc2CC1              pIC50  6.00 to 7.00
3  C#CCNC(=O)c1cccc(F)c1Nc1nc(Nc2ccc3c(c2)OCCCN3C(=O)OC)ncc1Cl              pIC50        > 7.00
4  CN(C)S(=O)(=O)c1ccccc1Nc1nc(Nc2ccc3c(c2)CCC(N2CCOCC2)CC3)ncc1Cl (centres unmarked)              pIC50  6.00 to 7.00

The recorded pIC50 with c-Met (cytoplasmic domain) (Homo sapiens) for CCN1C(=O)C(NC(=O)C(F)(F)F)CCc2c1ccc(Nc1ncc(Cl)c(N[C@@H]3CCCC[C@H]3NS(C)(=O)=O)n1)c2OC (some centres unmarked) was < 5.00

Reported pIC50 (c-Met (cytoplasmic domain) (Homo sapiens)) for entry CN(CCC#N)c1cccc(F)c1Nc1nc(Nc2ccc3c(c2)C(C)(C)CCC(=O)N3)ncc1Cl [Example 1266] is 5.00 to 6.00

Reading of pIC50 for COc1cc2c(cc1Nc1ncc(Cl)c(Nc3ccc(N4CCOCC4)cc3OC)n1)CCN(C(CF)CF)CC2 with c-Met (cytoplasmic domain) (Homo sapiens): < 5.00

Result for C#CCN(C)C(=O)c1ccccc1Nc1nc(Nc2ccc3c(c2)CCN(CCOC)CC3)ncc1Cl , tested on c-Met (cytoplasmic domain) (Homo sapiens), pIC50: 6.00 to 7.00

Measured pIC50 (c-Met (cytoplasmic domain) (Homo sapiens)), entry CC1(C)CCC(=O)Nc2cc(Nc3ncc(Cl)c(N[C@H]4[C@@H](C(N)=O)[C@@H]5C=C[C@H]4C5)n3)ccc21 : > 7.00

COc1cc2c(cc1Nc1ncc(Cl)c(Nc3ccccc3S(=O)(=O)N(C)C)n1)CCN(Cc1nccn1C)CC2 tested on c-Met (cytoplasmic domain) (Homo sapiens) gave pIC50: 5.00 to 6.00

###

# testedSystem: baculovirus-expressed ALK (Homo sapiens, UniProt Q9UM73)
# Construct: host or cells: baculovirus expression system
# Sequence (Q9UM73 19-1620): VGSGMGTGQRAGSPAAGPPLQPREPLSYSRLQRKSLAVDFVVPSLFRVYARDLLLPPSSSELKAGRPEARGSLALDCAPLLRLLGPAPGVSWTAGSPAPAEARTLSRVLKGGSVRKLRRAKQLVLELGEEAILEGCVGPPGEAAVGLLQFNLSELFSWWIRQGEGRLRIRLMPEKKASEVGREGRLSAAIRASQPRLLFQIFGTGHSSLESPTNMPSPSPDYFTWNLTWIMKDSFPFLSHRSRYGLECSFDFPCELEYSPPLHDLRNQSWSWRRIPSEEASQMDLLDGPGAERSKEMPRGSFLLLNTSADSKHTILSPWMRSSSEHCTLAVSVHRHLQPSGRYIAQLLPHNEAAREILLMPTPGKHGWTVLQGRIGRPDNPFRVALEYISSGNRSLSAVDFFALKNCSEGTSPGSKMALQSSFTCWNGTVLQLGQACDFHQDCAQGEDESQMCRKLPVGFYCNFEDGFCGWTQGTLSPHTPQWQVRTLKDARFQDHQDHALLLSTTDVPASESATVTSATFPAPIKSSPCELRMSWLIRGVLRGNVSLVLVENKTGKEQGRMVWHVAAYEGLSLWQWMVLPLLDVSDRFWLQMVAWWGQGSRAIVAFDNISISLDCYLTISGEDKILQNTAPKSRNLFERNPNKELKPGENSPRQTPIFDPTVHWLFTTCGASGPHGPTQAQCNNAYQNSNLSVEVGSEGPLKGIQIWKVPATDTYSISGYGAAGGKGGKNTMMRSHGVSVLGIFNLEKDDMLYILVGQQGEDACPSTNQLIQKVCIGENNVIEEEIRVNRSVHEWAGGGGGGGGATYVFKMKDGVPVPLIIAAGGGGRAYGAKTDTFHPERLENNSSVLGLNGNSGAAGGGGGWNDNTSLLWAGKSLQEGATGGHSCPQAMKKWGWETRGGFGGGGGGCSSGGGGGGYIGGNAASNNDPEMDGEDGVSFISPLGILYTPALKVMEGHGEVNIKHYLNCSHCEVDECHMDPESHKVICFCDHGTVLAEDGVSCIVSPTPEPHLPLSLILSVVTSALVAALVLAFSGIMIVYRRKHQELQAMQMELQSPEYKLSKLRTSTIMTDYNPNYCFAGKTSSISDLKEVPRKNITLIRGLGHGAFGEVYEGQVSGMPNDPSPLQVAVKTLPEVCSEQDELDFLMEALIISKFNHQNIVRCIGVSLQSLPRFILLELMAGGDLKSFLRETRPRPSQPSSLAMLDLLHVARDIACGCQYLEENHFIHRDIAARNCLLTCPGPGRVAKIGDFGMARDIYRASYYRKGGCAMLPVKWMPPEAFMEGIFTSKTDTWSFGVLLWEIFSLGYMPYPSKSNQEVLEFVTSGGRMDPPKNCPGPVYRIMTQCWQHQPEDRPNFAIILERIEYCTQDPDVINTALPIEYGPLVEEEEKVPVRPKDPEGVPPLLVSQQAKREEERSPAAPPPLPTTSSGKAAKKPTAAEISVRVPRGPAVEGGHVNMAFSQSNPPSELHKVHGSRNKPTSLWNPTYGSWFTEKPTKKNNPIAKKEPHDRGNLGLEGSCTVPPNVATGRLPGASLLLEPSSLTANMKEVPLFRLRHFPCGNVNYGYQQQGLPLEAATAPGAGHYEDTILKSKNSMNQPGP
# assay: ALK Kinase Assay (ELISA-type, time-resolved fluorescence)
# Assay type: biochemical
# condition: ALK kinase inhibition, 1 μM ATP; read-out: ALK Activity
pIC50: −log10 of the molar value.
Measured pIC50, listed per entry for reference.

Use the examples below as a reference point.
>>> print(df.to_string())
                                   molecule      observed
0  CN1C(=O)OCCc2cc(Nc3ncc(Cl)c(Nc4cccc5c4OC(F)(F)O5)n3)ccc21 [Example 1768]  6.00 to 7.00
1  CNC(=O)c1ccccc1Nc1nc(Nc2ccc3c(c2)N(C(=O)CN2CCCC2)CCCO3)ncc1Cl [Example 1706]  6.00 to 7.00
2  COc1cc2c(cc1Nc1ncc(Cl)c(N[C@@H]3CCCC[C@H]3NS(C)(=O)=O)n1)NC(=O)CN(C(=O)C(F)(F)F)C2(C)C [Example 1463]        > 7.00

Attention now turns to another entry.
Item: CCN1CCCC(C)(C)c2ccc(Nc3ncc(Cl)c(Nc4ccc(N5CCOCC5)cc4OC)n3)cc21 [Example 1635] | pIC50: 6.00 to 7.00

Where do the numbers come from? From patent US8148391B2.
